These measurements were taken from patent US9878999B2.

TGT: CT-L activity of purified 20S proteasome (Homo sapiens, UniProt P20618+P28074)
ASSAY_OVERVIEW: in vitro CT-L activity of purified 20S proteasome
Format: biochemical
COND: read-out: IC50, in vitro CT-L
VALUE_KIND: IC50

Reference set (2 entries):
CC(C)N(Cc1nc(-c2cccnc2)no1)C(=O)COc1ccc(O)cc1 [11u]    ~1000 nM
CC(C)N(Cc1nc(-c2ccc(Cl)cc2)no1)C(=O)COc1ccc(C(F)(F)F)cc1 [11d]    ~1000 nM

Query compound follows.
Request: Using known records, supply IC50 for CC(C)N(Cc1nc(-c2ccc(C(F)(F)F)cc2)no1)C(=O)COc1ccc(Cl)cc1 [11f]
Result: ~1000 nM
